Data provenance is paper PMC11843895.

TARGET ENTITY: Dnmt3a-CD (UniProt O88508 608-908)
Sequence (O88508 608-908): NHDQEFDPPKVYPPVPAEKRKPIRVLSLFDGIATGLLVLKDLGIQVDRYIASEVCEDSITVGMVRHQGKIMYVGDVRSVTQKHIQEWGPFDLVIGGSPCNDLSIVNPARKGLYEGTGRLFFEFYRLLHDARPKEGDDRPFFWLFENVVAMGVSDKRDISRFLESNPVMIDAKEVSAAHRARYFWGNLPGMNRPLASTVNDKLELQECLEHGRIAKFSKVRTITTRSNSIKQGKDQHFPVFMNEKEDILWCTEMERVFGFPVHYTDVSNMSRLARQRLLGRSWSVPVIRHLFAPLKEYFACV
RUN DESCRIPTION: BLI; 100 uM AdoHcy; BLI: 20 mM HEPES-NaOH pH 7.5, 100 mM KCl, 1 mM EDTA, 0.2 mM DTT, 100 uM AdoHcy, 5% glycerol, 0.02% Tween-20, 0.5 mg/mL BSA, 25 C; inhibition: buffer A (20 mM HEPES-NaOH pH 7.5, 100 mM KCl, 1 mM EDTA, 1 mM DTT) with 25 uM AdoMet, 37 C; FP: buffer A
MEASUREMENT PARAMETERS: protein: recombinant; tags: N-terminal 6xHis; chain copies: 2; label: 5' biotin on strand 1; blunt
READOUT KIND: pKd
Answers are plain numbers, as −log10 of the molar value.

Input line: Check the records and state pKd for MGMT-ds1-bio (dsDNA) DNA 1: GGTCCTGCAGGCGCCCTCACTT DNA 2: AAGTGAGGGCGCCTGCAGGACC
Output line: 7.19
